Numbers sourced from patent US11981677B2.

Catalogue of IC50 or EC50 (antagonist or agonist mode, not stated per compound) readings, one per entry.
test_system: Glucocorticoid Receptor (Homo sapiens, UniProt P04150)
Construct: expressed in transfected cells
Sequence (P04150 524-758 limits assumed): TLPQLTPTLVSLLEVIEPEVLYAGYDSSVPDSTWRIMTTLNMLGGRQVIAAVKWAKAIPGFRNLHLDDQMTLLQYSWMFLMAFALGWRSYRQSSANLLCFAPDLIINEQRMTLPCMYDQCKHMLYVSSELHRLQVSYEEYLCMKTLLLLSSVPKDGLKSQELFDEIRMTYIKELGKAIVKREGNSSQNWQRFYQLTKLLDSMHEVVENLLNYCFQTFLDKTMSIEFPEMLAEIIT
procedure_details: Agonistic mode of action on the glucocorticoid receptor (CHO-Gal4/GR luciferase reporter cell line)
Type: cell-based
measurement_context: CHO-Gal4/GR luciferase reporter cells; observed in the agonistic assay or the antagonistic assay (mode not given); read-out: IC50 or EC50 range

What value of IC50 or EC50 (antagonist or agonist mode, not stated per compound) has been recorded for this entry: Cc1c(-c2cc(F)cc3[nH]ccc23)cc(F)c2c1-n1c(C)nnc1C(C)(C)N2 < 100 nM

Next up: Cc1c(-c2cc(F)cc3c2cnn3S(C)(=O)=O)c(Cl)c(F)c2c1-n1c(C)nnc1C(C)(C)N2 < 100 nM
